Tested on: TNFα production in LPS-stimulated human monocytes
Experiment: Cot Monocyte TNFα Cell Based Assay
Settings: Homo sapiens, Monocyte, LPS-stimulated human monocytes, TNFα TR-FRET; read-out: EC50 TNF
readout-kind: EC50 (nM)

Cc1c([C@H](Nc2cc(C#N)c3ncc(C#N)c(NCC(C)(C)C)c3c2)c2cn(C3(C(F)F)CC3)nn2)cccc1-n1cncn1    81
Cc1c(-c2cn(C)cn2)cccc1[C@H](Nc1cc(Cl)c2ncc(C#N)c(NCC(C)(C)C)c2c1)c1cn(C2(C(F)(F)F)CC2)nn1    351
Cc1c(-c2ccncc2)cccc1[C@H](Nc1cc(Cl)c2ncc(C#N)c(NCC(C)(C)C)c2c1)c1cn(C2(C(F)(F)F)CC2)nn1    226
Cc1c(-c2cccnc2)cccc1[C@H](Nc1cc(C#N)c2ncc(C#N)c(NCC(C)(C)C)c2c1)c1cn(C2(C(F)(F)F)CC2)nn1    128
CC(C)(C)CNc1c(C#N)cnc2c(Cl)cc(N[C@@H](c3ccc(F)cc3)c3cn(CC(F)F)nn3)cc12    202

(A) [2H][C@@](Nc1cc(Br)c2ncc(C#N)c(N[C@H](CCC#N)c3ccccc3)c2c1)(c1cn(C2CC2)nn1)c1ccccc1Cl
(B) N#CCC[C@@H](Nc1c(C#N)cnc2c(C#N)cc(N[C@H](c3cn(C4CC4)nn3)c3ccccc3Cl)cc12)c1ccccc1
### Prompt Kindly compare A with B and tell me which has the lower EC50 figure. Answer by quoting the chosen item's label.
### Response B

(P) N#Cc1cnc2c(Cl)cc(N[C@@H](c3ccccc3)c3cn(C4CC4)nn3)cc2c1N[C@@H](c1ccccc1)C(F)(F)CO
(Q) CC(C)(C)CNc1c(C#N)cnc2c(Cl)cc(N[C@@H](c3ccc(F)cc3)c3cn(C4(C)CC4)nn3)cc12
(R) CCN1CCC(n2cc([C@@H](Nc3cc(Cl)c4ncc(C#N)c(N[C@H](CCC#N)c5ccccc5)c4c3)c3ccc(Cl)cc3)nn2)CC1
### Prompt Exam item: list the entries in increasing order of EC50. Write the labels out in the order the request specifies.
### Response R, Q, P

(1) [2H][C@](Nc1cc(Cl)c2ncc(C#N)c(Nc3cccc(Cl)c3)c2c1)(c1ccc(F)cc1)c1cn(C2CC2)nn1
(2) CC(C)(C)CNc1c(C#N)cnc2c(C#N)cc(N[C@H](c3cn(CC(N)=O)nn3)c3ccccc3Cl)cc12
### Prompt API: POST /compare with 1 and 2 ; response names the item with higher EC50. Answer by stating the label of the chosen item.
### Response 2
(2: 777 nM, 1: 282 nM)

----------
Molecular target: human Cot catalytic domain (30-397 amino acids) (Homo sapiens, UniProt P41279)
Construct: Purified recombinant human Cot catalytic domain (30-397 amino acids) was purchased from Cama Biosciences; purchased Cama Biosciences (so in the source)
Sequence (P41279 30-397): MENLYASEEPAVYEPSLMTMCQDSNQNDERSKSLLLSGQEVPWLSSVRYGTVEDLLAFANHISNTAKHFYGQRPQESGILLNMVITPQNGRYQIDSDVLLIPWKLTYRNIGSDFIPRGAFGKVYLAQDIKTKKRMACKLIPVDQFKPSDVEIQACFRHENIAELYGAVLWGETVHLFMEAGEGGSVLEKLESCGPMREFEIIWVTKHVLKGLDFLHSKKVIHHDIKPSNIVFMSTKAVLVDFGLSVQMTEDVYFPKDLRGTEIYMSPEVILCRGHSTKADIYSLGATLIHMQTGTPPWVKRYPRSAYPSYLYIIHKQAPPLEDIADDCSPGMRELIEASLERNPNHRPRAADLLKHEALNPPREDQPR
Experiment: High Throughput Cot Biochemical Assay (KinEASE TR-FRET)
Settings: Cot KinEASE TR-FRET, 400 μM ATP; read-out: IC50 HTRF
readout-kind: IC50 (nM)

Please review the following examples before continuing.
CN(c1ccc(F)c(Cl)c1)c1c(C#N)cnc2c(Cl)cc(N[C@@H](c3ccc(Cl)cc3)c3cn(C4CCN(C(C)(C)C)CC4)nn3)cc12 [Example 749]    3210
CCN1CCC(n2cc([C@@H](Nc3cc(Cl)c4ncc(C#N)c(Nc5ccc(F)c(Cl)c5)c4c3)c3ccc4ccccc4c3)nn2)CC1 [Example 820]    23
Cn1cc(C(Nc2cc(Cl)c3ncc(C#N)c(Nc4ccc(F)c(Cl)c4)c3c2)c2ccccc2)nn1 (stereo not drawn) [Example 920]    10

(A) N#Cc1cnc2ccc(NC(c3ccc(F)cc3)c3ccncn3)cc2c1Nc1ccc(F)c(Cl)c1 (stereo not drawn) [Example 799]
(B) CC(C)(C)CNc1c(C#N)cnc2c(Cl)cc(N[C@@H](c3cccc(-n4cncn4)c3)c3cn(C4CC4)nn3)cc12 [Example 1031]
(C) CN(C)Cc1ccc([C@H](Nc2cc(Cl)c3ncc(C#N)c(Nc4ccc(F)c(Cl)c4)c3c2)c2cn(C3CCN(C(C)(C)C)CC3)nn2)cc1 [Example 735]
### Prompt # rank_down: sort by IC50, max first Please reply with the labels ordered as requested. Many thanks.
### Response A, C, B

----------
Tested on: TNFα production in LPS-stimulated human monocytes
Test: Cot Monocyte TNFα Cell Based Assay
Settings: Homo sapiens, Monocyte, LPS-stimulated human monocytes, TNFα TR-FRET; read-out: EC50 TNF
readout-kind: EC50 (nM)

Check out these entries, answers already filled in.
Cc1c(C#N)cccc1[C@H](Nc1cc(Cl)c2ncc(C#N)c(NCC(C)(C)C)c2c1)c1cn(C2(CF)CC2)nn1 [Example 1100]    45
[2H][C@](Nc1cc(Br)c2ncc(C#N)c(NCC(C)(C)C)c2c1)(c1ccc(F)cc1)c1cn(CC(O)CNC(C)(C)C)nn1 (stereo partly shown) [Example 988]    334
Cc1c(-c2cncn2C)cccc1[C@H](Nc1cc(Cl)c2ncc(C#N)c(NCC(C)(C)C)c2c1)c1cn(C2(C(F)(F)F)CC2)nn1 [Example 1120]    88
Cc1c(-c2cnn(C)c2)cccc1[C@H](Nc1cc(C#N)c2ncc(C#N)c(NCC(C)(C)C)c2c1)c1cn(C2(C(F)F)CC2)nn1 [Example 1142]    31
CC(C)(C)CNc1c(C#N)cnc2c(C#N)cc(N[C@@H](c3ccccc3)c3cn(C45CC(C4)C5)nn3)cc12 [Example 1124]    138

(a) CC(C)(C)CNc1c(C#N)cnc2c(Cl)cc(N[C@@H](c3ccc(F)c(C(N)=O)c3)c3cn(C4(C(F)(F)F)CC4)nn3)cc12 [Example 1117]
(b) [2H][C@](Nc1cc(C#N)c2ncc(C#N)c(NCC(C)(C)C)c2c1)(c1cn(C2(C#N)CC2)nn1)c1ccccc1Cl [Example 1030]
### Prompt Quick check, higher EC50 between a and b ? The response must carry the label of the picked entry.
### Response a
(a: 561 nM, b: 82 nM)

(I) N#Cc1cnc2c(Cl)cc(N[C@@H](c3ccc(F)cc3)c3cn(C4CC4)nn3)cc2c1NCC12CC(C1)C2 [Example 927]
(II) CC(C)(C)CNc1c(C#N)cnc2c(C#N)cc(N[C@@H](c3ccc(F)cc3)c3cn(C4(c5cccnn5)CC4)nn3)cc12 [Example 987]
### Prompt Could you tell me which of these two has the smaller EC50 figure? First: I Second: II Indicate which entry you chose by stating its label.
### Response II
(II: 69 nM, I: 576 nM)

----------
What follows is a record of IC50 for Human EGFR, cytoplasmic domain [669-1210] (Homo sapiens, UniProt P00533).

### Prompt Lab request: please report IC50 under test system Human EGFR, cytoplasmic domain [669-1210] (Homo sapiens, UniProt P00533) for Cn1cc(CNc2cc(Cl)c3ncc(C#N)c(Nc4ccc(F)c(Cl)c4)c3c2)nn1 [Comparative Example 3, reference compound]
### Response > 10 µM

### Prompt Provide the documented IC50 with Human EGFR, cytoplasmic domain [669-1210] (Homo sapiens, UniProt P00533) as the system for CC(Nc1cc(Cl)c2ncc(C#N)c(Nc3ccc(F)c(Cl)c3)c2c1)c1cn(C)nn1 (stereo not shown) [Comparative Example 4, reference compound]
Sequence (P00533 669-1210): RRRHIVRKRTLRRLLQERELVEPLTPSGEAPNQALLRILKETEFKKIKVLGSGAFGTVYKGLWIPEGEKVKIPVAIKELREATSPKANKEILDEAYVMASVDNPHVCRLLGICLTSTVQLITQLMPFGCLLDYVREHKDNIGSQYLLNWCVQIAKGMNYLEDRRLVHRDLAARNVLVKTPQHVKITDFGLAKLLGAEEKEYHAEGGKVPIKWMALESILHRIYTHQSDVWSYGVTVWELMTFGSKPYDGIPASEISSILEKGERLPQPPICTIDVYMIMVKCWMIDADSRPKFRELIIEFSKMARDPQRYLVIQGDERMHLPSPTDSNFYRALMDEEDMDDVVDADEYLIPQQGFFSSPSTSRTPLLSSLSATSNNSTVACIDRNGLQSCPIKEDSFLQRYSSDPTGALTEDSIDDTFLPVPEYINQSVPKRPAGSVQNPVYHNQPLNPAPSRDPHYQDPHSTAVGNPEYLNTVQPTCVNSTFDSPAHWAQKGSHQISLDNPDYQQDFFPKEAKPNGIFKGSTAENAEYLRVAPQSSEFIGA
### Response > 10 µM

### Prompt Under Human EGFR, cytoplasmic domain [669-1210] (Homo sapiens, UniProt P00533): IC50 value of Cn1cc(C(Nc2cc(Cl)c3ncc(C#N)c(Nc4ccc(F)c(Cl)c4)c3c2)c2ccccc2)nn1 (stereo not shown) ?
### Response > 10 µM

### Prompt Give Human EGFR, cytoplasmic domain [669-1210] (Homo sapiens, UniProt P00533) IC50 for CCN1CCC(n2cc([C@@H](Nc3cc(Cl)c4ncc(C#N)c(Nc5ccc(F)c(Cl)c5)c4c3)c3ccccc3)nn2)CC1
### Response 2.29 µM

----------
Molecular target: human Cot catalytic domain (30-397 amino acids) (Homo sapiens)
Construct: Purified recombinant human Cot catalytic domain (30-397 amino acids) was purchased from Cama Biosciences; purchased Cama Biosciences (so in the source)
Test: High Throughput Cot Biochemical Assay (KinEASE TR-FRET)
Settings: Cot KinEASE TR-FRET (HTRF) biochemical assay, 400 μM ATP; read-out: IC50 HTRF
pIC50: −log10 of the molar value.
readout-kind: pIC50

These recorded examples may help you get a feel for the data.
[2H][C@](Nc1cc(Cl)c2ncc(C#N)c(NCC(C)(C)C)c2c1)(c1cccc(C#N)c1)c1cn(-c2cccnc2)nn1 [Example 327]    8.40
CC[C@@H](Nc1c(C#N)cnc2c(Cl)cc(N[C@@H](c3ccc(F)cc3)c3cn(C4(C(F)(F)F)CC4)nn3)cc12)c1ccccc1 [Example 379]    7.52
CC(C)n1cc([C@@H](Nc2cc(Cl)c3ncc(C#N)c(N[C@H](CC#N)c4ccccc4)c3c2)c2ccc(F)cc2)nn1 [Example 305]    8.40
[2H][C@](Nc1cc(C(F)(F)F)c2ncc(C#N)c(NCC(C)(C)C)c2c1)(c1ccc(F)cc1)c1cn(C2CC2)nn1 [Example 196]    6.57
[2H][C@](Nc1cc(Cl)c2ncc(C#N)c(NC(C)(C)CO)c2c1)(c1ccc(F)cc1)c1cn(C2CC2)nn1 [Example 173]    6.85

(A) [2H][C@](Nc1cc(Cl)c2ncc(C#N)c(NCCc3ccnn3C)c2c1)(c1ccc(F)cc1)c1cn(C2CC2)nn1 [Example 149]
(B) [2H][C@](Nc1cc(Cl)c2ncc(C#N)c(N[C@H](CC)c3ccccc3)c2c1)(c1cccc(C#N)c1)c1cn(C(C)(C)C)nn1 [Example 252]
### Prompt Select the item whose pIC50 value is smaller, choosing between A and B . // caller expects the label of the chosen entry
### Response A
